target: Recombinant human NK3 (hNK3) receptor (Homo sapiens, UniProt P29371); construct: expressed in transfected cells; test: NK3 receptor binding, [3H]SR142801 displacement, membrane preparations; conditions: second value of the cell pKi NK1/NK3; hNK3 receptor, [3H]SR142801
Sequence (P29371 whole entry): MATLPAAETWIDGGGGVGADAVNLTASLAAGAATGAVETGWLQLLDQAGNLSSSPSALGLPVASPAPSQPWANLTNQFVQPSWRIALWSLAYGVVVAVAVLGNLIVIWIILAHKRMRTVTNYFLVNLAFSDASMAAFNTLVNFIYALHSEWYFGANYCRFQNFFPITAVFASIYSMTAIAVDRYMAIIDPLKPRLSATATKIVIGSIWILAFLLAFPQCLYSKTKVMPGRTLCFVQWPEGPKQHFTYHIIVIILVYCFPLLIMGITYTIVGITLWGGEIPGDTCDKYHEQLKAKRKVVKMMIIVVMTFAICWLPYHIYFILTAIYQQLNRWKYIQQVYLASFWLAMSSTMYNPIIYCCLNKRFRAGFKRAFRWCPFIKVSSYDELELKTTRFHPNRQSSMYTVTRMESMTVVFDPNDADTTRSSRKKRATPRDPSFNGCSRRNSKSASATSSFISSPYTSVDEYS
READOUT: Ki (nM)

I = CN(C(=O)C(C)(C)c1cc(C(F)(F)F)cc(C(F)(F)F)c1)c1cnc(N2C[C@H](O)C[C@H]2CO)cc1-c1ccccc1Br
II = CN(C(=O)C(C)(C)c1cc(C(F)(F)F)cc(C(F)(F)F)c1)c1cnc(N2CCC[C@@H]2CO)cc1-c1ccccc1Cl
III = CCN(CCO)c1cc(-c2ccccc2C)c(N(C)C(=O)C(C)(C)c2cc(C(F)(F)F)cc(C(F)(F)F)c2)cn1
IV = Cc1cc(F)ccc1-c1cc(N2CC(O)C2)ncc1N(C)C(=O)C(C)(C)c1cc(C(F)(F)F)cc(C(F)(F)F)c1
Order these molecules (above) by their Ki, from the smallest value upward. Labels, ranked as asked.
I, III, II, IV

1 = Cc1ccccc1-c1cc(N2C[C@@H](O)C[C@@H]2CO)ncc1N(C)C(=O)C(C)(C)c1cc(F)cc(C(F)(F)F)c1 (stereo in doubt)
2 = CN(C(=O)C(C)(C)c1cc(C(F)(F)F)cc(C(F)(F)F)c1)c1cnc(N2CC[C@H](O)C2)cc1-c1ccccc1Cl
3 = CN(CCO)c1cc(-c2ccc(F)cc2)c(N(C)C(=O)C(C)(C)c2cc(C(F)(F)F)cc(C(F)(F)F)c2)cn1
4 = Cc1ccccc1-c1cc(N2CCC[C@H]2CO)ncc1N(C)C(=O)C(C)(C)c1cc(F)cc(C(F)(F)F)c1
5 = Cc1cc(F)ccc1-c1cc(N[C@H]2CCC[C@@H]2O)ncc1N(C)C(=O)C(C)(C)c1cc(C(F)(F)F)cc(C(F)(F)F)c1
Arrange these molecules by their Ki, starting with the largest number. Rank the items, then write their labels in that order.
3, 2, 5, 1, 4

----------
biological target: human NK1 receptor (Homo sapiens); test: NK1 receptor binding, [3H]substance P displacement, CHO cell membranes; conditions: first value of the cell pKi NK1/NK3; human NK1 receptor, [3H]substance P
READOUT: Ki (nM)

Consider the following illustrative entries.
> print(dat)
                                   compound                             system  readout  numeric.result
1  Cc1ccccc1-c1cc(N2CCC(CO)CC2)ncc1N(C)C(=O)C(C)(C)c1cc(C(F)(F)F)cc(C(F)(F)F)c1  human NK1 receptor (Homo sapiens)       Ki            7.08
2  CN(C)c1ccc(-c2cc(N3C[C@H](O)C[C@H]3CO)ncc2N(C)C(=O)C(C)(C)c2cc(C(F)(F)F)cc(C(F)(F)F)c2)cc1  human NK1 receptor (Homo sapiens)       Ki            15.1
3  Cc1cc(F)ccc1-c1cc(N2CC[C@H](N(C)S(C)(=O)=O)C2)ncc1N(C)C(=O)C(C)(C)c1cc(C(F)(F)F)cc(C(F)(F)F)c1  human NK1 receptor (Homo sapiens)       Ki            1.02
4  C[C@H](O)CNc1cc(-c2ccccc2Br)c(N(C)C(=O)C(C)(C)c2cc(C(F)(F)F)cc(C(F)(F)F)c2)cn1  human NK1 receptor (Homo sapiens)       Ki            1.07
5  CN(C(=O)C(C)(C)c1cc(C(F)(F)F)cc(C(F)(F)F)c1)c1cnc(N2C[C@H](O)C[C@H]2CO)cc1-c1ccc(Cl)c(Cl)c1  human NK1 receptor (Homo sapiens)       Ki            4.27

1 = Cc1cc(C)cc(C(C)(C)C(=O)N(C)c2cnc(N3CCC[C@H]3CO)cc2-c2ccccc2Cl)c1
2 = Cc1cc(F)ccc1-c1cc(N[C@H]2CCC[C@@H]2O)ncc1N(C)C(=O)C(C)(C)c1cc(C(F)(F)F)cc(C(F)(F)F)c1
Returns: the argument ( 1 or 2 ) having the larger Ki. # answer = label of selected item
1

I = Cc1ccccc1-c1cc(N2CCC[C@H]2CO)ncc1N(C)C(=O)C(C)(C)c1cc(Cl)cc(Cl)c1
II = Cc1cc(C)cc(C(C)(C)C(=O)N(C)c2cnc(N3C[C@H](O)C[C@H]3CO)cc2-c2ccc(F)cc2C)c1
Which entry has a larger number for Ki, I or II ? Please indicate the selected item by its label.
I

a = Cc1cc(F)ccc1-c1cc(N2C[C@H](O)C[C@H]2CO)ncc1N(C)C(=O)C(C)(C)c1cc(F)cc(F)c1
b = Cc1ccccc1-c1cc(NC[C@@H](O)CO)ncc1N(C)C(=O)C(C)(C)c1cc(C(F)(F)F)cc(C(F)(F)F)c1
c = COc1cc(Cl)cc(C(C)(C)C(=O)N(C)c2cnc(N3CCC[C@H]3CO)cc2-c2ccc(F)cc2C)c1
Sort ascending by Ki. // rank by listing labels in the order requested
a, b, c

P = Cc1ccccc1-c1cc(N2C[C@H](O)C[C@@H](O)C2)ncc1N(C)C(=O)C(C)(C)c1cc(C(F)(F)F)cc(C(F)(F)F)c1
Q = Cc1cc(F)ccc1-c1cc(N(CCO)CCCO)ncc1N(C)C(=O)C(C)(C)c1cc(C(F)(F)F)cc(C(F)(F)F)c1
R = CN(C(=O)C(C)(C)c1cc(C(F)(F)F)cc(C(F)(F)F)c1)c1cnc(N2CC(O)C2)cc1-c1ccccc1Cl
S = CCN(CCO)c1cc(-c2ccc(F)cc2)c(N(C)C(=O)C(C)(C)c2cc(C(F)(F)F)cc(C(F)(F)F)c2)cn1
Could you please order the items by Ki, going from the lowest number to the highest? Reply with the labels, ordered as the question asks.
R, P, Q, S
(R: 0.692 nM, P: 1.51 nM, Q: 2.34 nM, S: 3.89 nM)

----------
target: human NK1 receptor (Homo sapiens, UniProt P25103); test: NK1 receptor binding, [3H]substance P displacement, CHO cell membranes; conditions: first value of the cell pKi NK1/NK3; human NK1 receptor, [3H]substance P
Sequence (P25103 whole entry): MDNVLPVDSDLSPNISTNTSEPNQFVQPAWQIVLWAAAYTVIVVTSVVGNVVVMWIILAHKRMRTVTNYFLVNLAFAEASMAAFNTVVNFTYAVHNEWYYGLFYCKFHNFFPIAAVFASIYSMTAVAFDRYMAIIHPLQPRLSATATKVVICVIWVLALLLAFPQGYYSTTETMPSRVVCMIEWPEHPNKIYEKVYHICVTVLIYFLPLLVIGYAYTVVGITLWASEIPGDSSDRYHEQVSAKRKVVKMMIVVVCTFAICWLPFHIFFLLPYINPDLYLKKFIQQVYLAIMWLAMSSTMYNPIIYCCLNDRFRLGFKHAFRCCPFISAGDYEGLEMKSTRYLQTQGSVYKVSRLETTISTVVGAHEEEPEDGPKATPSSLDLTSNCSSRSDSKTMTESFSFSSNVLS
pKi: −log10 of the molar value.
READOUT: pKi

Some compounds with recorded pKi:
> print(dat)
                                   compound  numeric.result
1  CN(C(=O)C(C)(C)c1cc(Cl)cc(Cl)c1)c1cnc(N2C[C@H](O)C[C@H]2CO)cc1-c1ccccc1Cl [Example 3]            8.85
2  CC(=O)NC1CCN(c2cc(-c3ccc(F)cc3C)c(N(C)C(=O)C(C)(C)c3cc(C(F)(F)F)cc(C(F)(F)F)c3)cn2)CC1 [Example 114]            9.22
3  Cc1cc(F)ccc1-c1cc(N2CCC[C@H]2CN2CCCC2)ncc1N(C)C(=O)C(C)(C)c1cc(C(F)(F)F)cc(C(F)(F)F)c1 [Example 169]            8.85

P = Cc1cc(F)ccc1-c1cc(N2[C@H](CO)CC[C@@H]2CO)ncc1N(C)C(=O)C(C)(C)c1cc(C(F)(F)F)cc(C(F)(F)F)c1 [Example 197]
Q = CN(C(=O)C(C)(C)c1cc(C(F)(F)F)cc(C(F)(F)F)c1)c1cnc(N2CCN(C(=O)C3CC3)CC2)cc1-c1ccccc1Cl [Example 62]
Consider entries P and Q . Which has the numerically lower pKi? Please respond with the label that marks your chosen entry.
P
(P: 8.54, Q: 8.99)

1 = CN(CCO)c1cc(-c2ccccc2Cl)c(N(C)C(=O)C(C)(C)c2cc(C(F)(F)F)cc(C(F)(F)F)c2)cn1 [Example 54]
2 = CCCCN(CCO)c1cc(-c2ccccc2Cl)c(N(C)C(=O)C(C)(C)c2cc(C(F)(F)F)cc(C(F)(F)F)c2)cn1 [Example 57]
Of 1 and 2 , which shows the smaller pKi value? Pick one; state its label.
2

a = CN(C(=O)C(C)(C)c1cc(C(F)(F)F)cc(C(F)(F)F)c1)c1cnc(N(CCO)CCCO)cc1-c1ccccc1Cl [Example 150]
b = C[C@H](O)[C@H](CO)Nc1cc(-c2ccccc2Cl)c(N(C)C(=O)C(C)(C)c2cc(C(F)(F)F)cc(C(F)(F)F)c2)cn1 [Example 147]
Out of a and b , name the one with the higher pKi. // respond with label for picked entry
b

I = CCN(CCO)c1cc(-c2ccccc2Cl)c(N(C)C(=O)C(C)(C)c2cc(C(F)(F)F)cc(C(F)(F)F)c2)cn1 [Example 55]
II = CC(=O)N[C@@H]1CCN(c2cc(-c3ccc(F)cc3C)c(N(C)C(=O)C(C)(C)c3cc(C(F)(F)F)cc(C(F)(F)F)c3)cn2)C1 [Example 100]
Which is greater in pKi, the first item I or the second item II ? Your choice should be expressed through its label.
II
(II: 8.74, I: 8.48)
